Sourced from patent US20180118718A1

Target: Human recombinant His-tagged PFKFB3 (Homo sapiens)
Construct: His; made in house
Sequence (Q16875 whole entry): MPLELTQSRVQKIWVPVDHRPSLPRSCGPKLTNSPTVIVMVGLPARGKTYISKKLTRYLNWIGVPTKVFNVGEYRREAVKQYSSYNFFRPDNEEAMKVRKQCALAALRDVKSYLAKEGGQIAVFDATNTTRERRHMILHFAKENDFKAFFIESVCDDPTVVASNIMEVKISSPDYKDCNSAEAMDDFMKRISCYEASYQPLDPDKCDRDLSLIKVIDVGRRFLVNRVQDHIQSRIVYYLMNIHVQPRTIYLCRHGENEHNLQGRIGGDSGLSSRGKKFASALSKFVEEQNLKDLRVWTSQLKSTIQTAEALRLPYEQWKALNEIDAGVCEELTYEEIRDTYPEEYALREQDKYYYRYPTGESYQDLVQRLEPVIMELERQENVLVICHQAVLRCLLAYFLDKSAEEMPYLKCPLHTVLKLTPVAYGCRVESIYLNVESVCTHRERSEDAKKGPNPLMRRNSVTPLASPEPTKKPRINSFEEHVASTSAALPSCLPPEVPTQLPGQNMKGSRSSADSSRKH
Assay: PFKFB3 IC50 Determination Assay (in vitro kinase assay, modified ADP-Glo system)
Type: biochemical
Details: ATP 20 μM and fructose-6-phosphate 2 μM (Km), 25 nM PFKFB3, 2 h, rt, ADP-Glo luminescence
pIC50: −log10 of the molar value.
REPORTED METRIC: pIC50

Would you please look over these solved cases?
>>> recorded_result("Cc1ccc(O)c(-c2cc(Nc3cnccc3S(C)(=O)=O)cc3nccnc23)c1 [Example 67]")
"5.00 to 6.00"
>>> recorded_result("CS(=O)(=O)c1ccncc1Nc1cc(-c2ccc3n[nH]nc3c2)c2nccnc2c1 [Example 118]")
"5.00 to 6.00"
>>> recorded_result("Cc1ccc(N)c(-c2cc(Nc3cnccc3S(C)(=O)=O)cc3nccnc23)c1 [Example 66]")
"5.00 to 6.00"

Query :: Supply reported pIC50 belonging to this compound: Cn1ccc2ccc(-c3cc(Nc4cnccc4Cl)cc4nccnc34)cc21 [Example 69]
Result :: 6.00 to 9.00

Query :: Supply reported pIC50 belonging to this compound: Cn1ccc2ccc(-c3cc(Nc4cnccc4C(=O)Nc4cccnc4)cc4nccnc34)cc21 [Example 207]
Result :: 6.00 to 9.00

Query :: Supply reported pIC50 belonging to this compound: Cc1ccc(C(N)=O)c(-c2cc(Nc3cnccc3S(C)(=O)=O)cc3nccnc23)c1 [Example 128]
Result :: 4.00 to 5.00

Query :: Supply reported pIC50 belonging to this compound: Cn1ccc2ccc(-c3cc(Nc4c[n+]([O-])ccc4S(C)(=O)=O)cc4nccnc34)cc21 [Example 44]
Result :: 6.00 to 9.00

Query :: Supply reported pIC50 belonging to this compound: Cc1coc2ccc(-c3cc(Nc4cc([N+](=O)[O-])ccc4S(C)(=O)=O)cc4nccnc34)cc12 [Example 103]
Result :: 5.00 to 6.00
